- System: SR leukemia
- assayMethodText: NCI-60 one-dose screen, 48 h
- studyConditions: 10 µM unless noted
Compounds without any hit were thinned out: in the full panel of roughly 83,000, 20% have a hit. Active and inactive are the calls of the source. How the source made its calls: active means growth percent below 10; inactive means the rest.
Just give me one of these, please: T for active, F for inactive

As a guide, the following entries are already answered.
{"molecule": "O=C(O)CCCCCNC(=O)OCc1ccccc1", "assignedCategory": "F"}
{"molecule": "O=c1cc(C(F)(F)F)[nH]c(=S)[nH]1", "assignedCategory": "F"}
{"molecule": "Cn1c(=O)c2[nH]c(CC(=O)O)nc2n(C)c1=O", "assignedCategory": "F"}
{"molecule": "OC1Cc2ccccc2C1", "assignedCategory": "F"}
{"molecule": "CC(=O)C1C(=O)C(=O)N(c2cccc([N+](=O)[O-])c2)C1=O (centres undefined)", "assignedCategory": "F"}

query: How was CCCCN(C=S)CCCC classified in this test?
result: F

query: How was Cc1ccc([N+](=O)[O-])c(C)n1 classified in this test?
result: F

Reference source: PubChem BioAssay (NCI)
